target.or.system: human ether-à-go-go-related gene (hERG) potassium channel (human);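 further: peak tail current of the secondary pulse compared with the same well before compound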
method.description: primary screen, population patch clamp on CHO cells stably expressing hERG; higher = less effect of the substance
About 14,000 (4.5%) of roughly 310,000 compounds showed an effect of 50% or more. The effect is printed as a negative number. This excerpt belongs to a sample that is enriched for strong results.
property.label: hERG current change (%, negative = inhibition) at 10uM (%)

{"columns": ["compound.structure", "units.of.measure", "observed.value"],
 "data": [
  ["CCOC(=O)/C(C#N)=C/Nc1ccccc1OC", "%", 0.538],
  ["C[C@@H]1CC=C[C@H]2[C@H]1C(=O)N(Cc1ccccc1)[C@H]2c1ccc2ccccc2c1", "%", 3.52],
  ["COc1ccc(/C=C2/C(=O)N=C(N)N2C)cc1OC", "%", 7.3],
  ["CC(C)CCNC(=O)CN(Cc1ccc2c(c1)OCO2)C(=O)CCC(=O)Nc1ccccn1", "%", -70.7],
  ["CSc1ccc(/C=C2\\C(=N)N3N=C(CC(=O)N4CCOCC4)SC3=NC2=O)cc1", "%", 14.2],
  ["CC(C)CCNC(=O)CN(Cc1ccccc1)C(=O)CCC(=O)Nc1ccccn1", "%", -19.7]
]}

* * *

target.or.system: human ether-à-go-go-related gene (hERG) potassium channel (human, UniProt Q12809);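 further: peak tail current of the secondary pulse compared with the same well before compound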
Sequence (Q12809 whole entry, looked up): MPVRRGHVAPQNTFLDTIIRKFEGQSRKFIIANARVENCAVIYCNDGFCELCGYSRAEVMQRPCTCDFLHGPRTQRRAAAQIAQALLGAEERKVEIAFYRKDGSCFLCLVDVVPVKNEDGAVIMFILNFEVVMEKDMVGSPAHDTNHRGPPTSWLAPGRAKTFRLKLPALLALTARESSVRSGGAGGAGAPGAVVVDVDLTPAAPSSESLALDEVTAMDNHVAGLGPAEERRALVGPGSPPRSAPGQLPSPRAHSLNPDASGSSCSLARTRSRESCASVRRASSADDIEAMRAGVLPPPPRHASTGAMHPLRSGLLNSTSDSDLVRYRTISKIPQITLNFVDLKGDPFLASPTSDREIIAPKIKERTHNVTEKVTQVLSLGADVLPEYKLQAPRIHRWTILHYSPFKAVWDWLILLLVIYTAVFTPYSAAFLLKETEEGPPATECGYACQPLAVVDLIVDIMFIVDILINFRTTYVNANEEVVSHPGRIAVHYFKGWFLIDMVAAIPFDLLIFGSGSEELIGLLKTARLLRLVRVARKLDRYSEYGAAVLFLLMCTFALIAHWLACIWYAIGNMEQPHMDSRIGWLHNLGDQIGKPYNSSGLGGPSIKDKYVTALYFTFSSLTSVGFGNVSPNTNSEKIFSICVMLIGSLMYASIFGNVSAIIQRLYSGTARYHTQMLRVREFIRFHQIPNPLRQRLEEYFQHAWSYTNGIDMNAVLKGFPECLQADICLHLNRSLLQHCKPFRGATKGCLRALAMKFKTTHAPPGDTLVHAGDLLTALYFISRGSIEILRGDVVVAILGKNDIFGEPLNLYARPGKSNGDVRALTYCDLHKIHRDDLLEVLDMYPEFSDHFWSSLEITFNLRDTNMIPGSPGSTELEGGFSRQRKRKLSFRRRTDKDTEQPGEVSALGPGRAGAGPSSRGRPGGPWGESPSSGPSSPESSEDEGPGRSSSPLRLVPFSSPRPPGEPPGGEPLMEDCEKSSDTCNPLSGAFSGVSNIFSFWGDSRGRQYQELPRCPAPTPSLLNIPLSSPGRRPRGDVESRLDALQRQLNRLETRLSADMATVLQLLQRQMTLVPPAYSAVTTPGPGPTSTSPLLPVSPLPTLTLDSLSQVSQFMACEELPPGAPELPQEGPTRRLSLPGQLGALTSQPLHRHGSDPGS
method.description: primary screen, population patch clamp on CHO cells stably expressing hERG; higher = less effect of the substance
Hit rate of the full screen: of about 310,000 compounds, about 14,000 (4.5%) showed an effect of 50% or more. Effects have a minus sign here. Many of the other results were omitted from the sample, so strong results are more common in it than they were.
The entries below are paired with their reported hERG current change (%, negative = inhibition) at 10uM.
property.label: hERG current change (%, negative = inhibition) at 10uM (%)

{"columns": ["compound.structure", "observed.value"],
 "data": [
  ["O=S(=O)(c1ccc(F)cc1)N1CCN(c2nc(-c3cccnc3)nc3ccccc23)CC1", -72],
  ["CN1CCN(c2nc(-c3ccccc3)ncc2S(=O)(=O)c2ccccc2)CC1", -63.2],
  ["Nc1nc(Oc2ccc(F)cc2)c(Br)c(=O)[nH]1", 7.49]
]}

* * *

target.or.system: human ether-à-go-go-related gene (hERG) potassium channel (human, UniProt Q12809);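 further: peak tail current of the secondary pulse compared with the same well before compound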
method.description: primary screen, population patch clamp on CHO cells stably expressing hERG; higher = less effect of the substance
About 14,000 (4.5%) of roughly 310,000 compounds showed an effect of 50% or more. The effect is printed as a negative number. Only a selection was taken, and strong results are over-represented in it overall.
property.label: hERG current change (%, negative = inhibition) at 10uM (%)

{"columns": ["compound", "observed.value"],
 "data": [
  ["Cc1ccc(CN2CC[C@H]3C=CCc4cccc(c43)C2)cc1", -22.1],
  ["O=C(NC(=S)N1CCN(c2nc(-c3ccccc3)cs2)CC1)c1cncc(Br)c1", 17],
  ["Fc1ccc(CN2CC[C@H]3C=CCc4cccc(c43)C2)cc1", -30.2],
  ["Cc1ccccc1NCc1ccc([N+](=O)[O-])s1", -38.8],
  ["O=C(CCCn1c(=S)[nH]c2ccsc2c1=O)NCc1ccco1", 18.8],
  ["CCCC(=O)N(Cc1cc(=O)[nH]c2ccccc12)c1ccc(C)cc1", -3.22],
  ["COc1ccccc1N(C(=O)c1csnn1)C(C(=O)NC1CCCC1)c1ccccc1 (centres unmarked)", -1.69],
  ["COCCNc1c([N+](=O)[O-])c(=O)n(-c2ccccc2)c2ccccc12", -25.2]
]}

src = paper PMC4336329
